Attribute: Ki
Measurement target: Sigma 2 receptor
Experimental protocol: Tested for its binding affinity towards sigma-2 site in rat brain using [3H]DTG as radioligand
Assay type: tissue-based
Test readout: Ki (µM)

| Molecule | Test readout | Result unit | Endpoint value |
| --- | --- | --- | --- |
| CCN(CC)CCOCCOC(=O)C1(c2ccccc2)CC1 | Ki | µM | 2.91 |
| O=C(NCOCCN1CCOCC1)C1(c2ccc(Cl)c(Cl)c2)CCCCC1 | Ki | µM | 1.64 |
| CCN(CC)CCOCCN(C)CC1(c2ccccc2)CCCC1 | Ki | µM | 1.1 |
| O=C(OCOCCN1CCCC1)C1(c2ccc(Cl)c(Cl)c2)CCCCC1 | Ki | µM | 0.688 |
| CCN(CC)CCOCCOC(=O)C1(c2ccc(OC)cc2)CCCC1 | Ki | µM | 1.5 |
| O=C(OCOCCN1CCOCC1)C1(c2ccc(Cl)c(Cl)c2)CCCCC1 | Ki | µM | 0.981 |
| CCN(CC)CCOCCOCC1(c2ccccc2)CCCC1 | Ki | µM | 0.463 |
| CCN(CC)CCOCCNC(=O)C1(c2ccccc2)CCCC1 | Ki | µM | 2.84 |
| CCN(CC)CCOCNC(=O)C1(c2ccc(Cl)c(Cl)c2)CCCCC1 | Ki | µM | 0.527 |
| CCN(CC)CCOCCOC(=O)C1(c2ccc(Cl)cc2)CCCC1 | Ki | µM | 0.648 |
| CCN(CC)CCOCCOC(=O)C1(c2ccccc2)CCCCC1 | Ki | µM | 0.78 |
| CCN(CC)CCOCCOC(=O)C(C)c1ccccc1 (centres undefined) | Ki | µM | 3.11 |
| CCN(CC)CCOCCNCC1(c2ccccc2)CCCC1 | Ki | µM | 1.1 |
| CCN(CC)CCOCOC(=O)C1(c2ccc(Cl)c(Cl)c2)CCCCC1 | Ki | µM | 0.667 |

----------
Measurement target: Sigma non-opioid intracellular receptor 1 (Rattus norvegicus)
Sequence (Q9R0C9 whole entry): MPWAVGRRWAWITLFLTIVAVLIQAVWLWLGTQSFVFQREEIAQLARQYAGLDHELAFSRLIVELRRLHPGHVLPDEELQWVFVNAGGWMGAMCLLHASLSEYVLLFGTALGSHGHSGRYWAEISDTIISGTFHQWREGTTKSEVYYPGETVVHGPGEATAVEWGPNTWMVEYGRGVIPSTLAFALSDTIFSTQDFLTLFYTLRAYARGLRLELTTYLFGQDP
Experimental protocol: Tested for its binding affinity towards sigma-1 site in rat brain, using [3H]DTG as radioligand
Format: tissue-based
pKi: −log10 of the molar value.

| Mol smiles | pKi |
| --- | --- |
| c1ccc(CCCCCNCCCCc2ccccc2)cc1 | 8.70 |

----------
Experimental protocol: Ratio between the Ki values of m1 and sigma-1 receptors
Classes based on Ratio: low-valued = under 3, mid-valued = from 3 up to 20, high-valued = 20 and over

| Compound | Assigned class |
| --- | --- |
| CCN(CC)CCOCCOC(=O)C1(c2ccc(OC)cc2)CCCC1 | mid-valued |
| O=C(NCOCCN1CCOCC1)C1(c2ccc(Cl)c(Cl)c2)CCCCC1 | high-valued |
| CCN(CC)CCOCCN(C)CC1(c2ccccc2)CCCC1 | high-valued |
| CCN(CC)CCOCCOC(=O)C1(c2ccc(Cl)cc2)CCCC1 | mid-valued |
| CCN(CC)CCOCCOCC1(c2ccccc2)CCCC1 | high-valued |
| CCN(CC)CCOCOC(=O)C1(c2ccc(Cl)c(Cl)c2)CCCCC1 | low-valued |
| CCN(CC)CCOCCOC(=O)C1(c2ccccc2)CCCCC1 | mid-valued |
| CCN(CC)CCOCCOC(=O)C(C)c1ccccc1 (centres undefined) | high-valued |
| CCN(CC)CCOCNC(=O)C1(c2ccc(Cl)c(Cl)c2)CCCCC1 | high-valued |
| CCN(CC)CCOCCNCC1(c2ccccc2)CCCC1 | low-valued |
| O=C(OCOCCN1CCOCC1)C1(c2ccc(Cl)c(Cl)c2)CCCCC1 | high-valued |
| CCN(CC)CCOCCNC(=O)C1(c2ccccc2)CCCC1 | high-valued |
| O=C(OCOCCN1CCCC1)C1(c2ccc(Cl)c(Cl)c2)CCCCC1 | low-valued |
| CCN(CC)CCOCCOC(=O)C1(c2ccccc2)CC1 | high-valued |

The reported measurements were obtained from ChEMBL document CHEMBL1127585.
